Where these numbers come from: ChEMBL document CHEMBL5528082

test system: Staphylococcus aureus; assay: Antibacterial activity against TMP-resistant Staphylococcus aureus BHKS 227 incubated for 24 hrs by CLSI based broth microdilution assay; type: functional
experimental endpoint: MIC

In [3]: df
Out[3]:
                     smiles_representation      val
0  CC(C)c1cc(OCC2CCC2)c(I)cc1Oc1cnc(N)nc1N  1 µg/mL

Observed MIC on Staphylococcus aureus for COc1cc(C(C)C)c(Oc2cnc(N)nc2N)cc1-c1ccccc1 , please. 2 µg/mL

Can you look up MIC on Staphylococcus aureus for CC(C)c1cc(OCCc2ccccc2)c(I)cc1Oc1cnc(N)nc1N ? 2 µg/mL

Hello, I am looking for reported MIC with Staphylococcus aureus for COc1cc(C(C)C)c(Oc2cnc(N)nc2N)cc1-c1ccc(C(=O)O)cc1 . Could you help? < 0.25 µg/mL

What MIC appears in the records for this molecule with Staphylococcus aureus? Cc1cc(NS(=O)(=O)c2ccc(N)cc2)no1 4 µg/mL

Could you share what MIC was measured for CCCOc1cc(C(C)C)c(Oc2cnc(N)nc2N)cc1I , tested on Staphylococcus aureus? 0.5 µg/mL

###

assay: Cytotoxicity against human NCM460 cells assessed as inhibition rate of cell growth at 100 uM incubated for 24 hrs by CCK8 assay relative to control; type: toxicity, cell-based
Below, each entry is listed alongside its reported inhibition at 24 h, 100 µM.
The response must be a number in % with no trailing unit.

                                   molecule   val
0  COc1cc(C(C)C)c(Oc2cnc(N)nc2N)cc1-c1ccncc1  6.02

Given CCCCOc1cc(C(C)C)c(Oc2cnc(N)nc2N)cc1-c1cc(Cl)cc(Cl)c1 , state its recorded inhibition at 24 h, 100 µM. 42.5

// returns reported inhibition at 24 h, 100 µM for input COc1cc(C(C)C)c(Oc2cnc(N)nc2N)cc1-c1ccc2c(c1)OCO2 62.3

Entry CCC(C)Oc1cc(C(C)C)c(Oc2cnc(N)nc2N)cc1I (stereo not given) has what inhibition at 24 h, 100 µM? 70.7

Reported inhibition at 24 h, 100 µM for COc1cc(C(C)C)c(Oc2cnc(N)nc2N)cc1C1CC1 : what is it? 4.06

Using the record for COc1ccc(Oc2cnc(N)nc2N)cc1-c1ccc(OC(F)(F)F)cc1 , report its inhibition at 24 h, 100 µM. 69.9

###

assay: Cytotoxicity against human NCM460 cells assessed as inhibition rate of cell growth at 100 uM incubated for 24 hrs by CCK8 assay relative to control; format: toxicity, cell-based
Each item that follows carries a reported inhibition at 24 h, 100 µM.
Report as a plain number; the unit % is understood.

>>> df
                                   compound       experimental_endpoint   val
0  COc1cc(C(C)C)c(Oc2cnc(N)nc2N)cc1-c1ccc(C)cc1  inhibition at 24 h, 100 µM  55.5
1         COc1cc(C(C)C)c(Oc2cnc(N)nc2N)cc1I  inhibition at 24 h, 100 µM  32.1
2  COc1cc(C(C)C)c(Oc2cnc(N)nc2N)cc1-c1ccc2ccccc2c1  inhibition at 24 h, 100 µM  67.6
3  CCCCOc1cc(C(C)C)c(Oc2cnc(N)nc2N)cc1-c1ccc(C(C)C)cc1  inhibition at 24 h, 100 µM  40.9
4  COc1cc(C(C)C)c(Oc2cnc(N)nc2N)cc1-c1ccccc1  inhibition at 24 h, 100 µM  74.2
5  COc1ccc(Oc2cnc(N)nc2N)cc1-c1ccc(C(F)(F)F)cc1  inhibition at 24 h, 100 µM  68.3
6  COc1cc(C(C)C)c(Oc2cnc(N)nc2N)cc1-c1ccc(C(C)(C)C)cc1  inhibition at 24 h, 100 µM  65.6
7  CC(C)c1cc(OCC2CC2)c(-c2cc(Cl)cc(Cl)c2)cc1Oc1cnc(N)nc1N  inhibition at 24 h, 100 µM  35.8

For the compound shown here, COc1cc(C(C)C)c(Oc2cnc(N)nc2N)cc1-c1ccc(Cl)c(C(F)(F)F)c1 , give the reported inhibition at 24 h, 100 µM. 37.8

Can you share its inhibition at 24 h, 100 µM? I mean this compound: CCCCCCOc1cc(C(C)C)c(Oc2cnc(N)nc2N)cc1I 66

# get_value(readout='inhibition at 24 h, 100 µM', item= CC(C)c1cc(OCC2CC2)c(-c2ccc(OC(F)(F)F)cc2)cc1Oc1cnc(N)nc1N ) 31.3

Data request, read-out inhibition at 24 h, 100 µM, for CC(C)c1cc(OCC2CCCC2)c(I)cc1Oc1cnc(N)nc1N 35.2

Name the recorded inhibition at 24 h, 100 µM for CCCCOc1cc(C(C)C)c(Oc2cnc(N)nc2N)cc1I . 72.9

Quick one: inhibition at 24 h, 100 µM of CC(C)CCOc1cc(C(C)C)c(Oc2cnc(N)nc2N)cc1I ? 35.6

// lookup inhibition at 24 h, 100 µM for COc1cc(C(C)C)c(Oc2cnc(N)nc2N)cc1-c1ccc(C(F)(F)F)c(Cl)c1 41.9

State the recorded inhibition at 24 h, 100 µM for this entry: CC(C)c1cc(OCC2CC2)c(I)cc1Oc1cnc(N)nc1N 20.2

Return reported inhibition at 24 h, 100 µM; argument: COc1cc(C(C)C)c(Oc2cnc(N)nc2N)cc1-c1ccc(F)cc1 60.3

Need inhibition at 24 h, 100 µM of COc1cc(C(C)C)c(Oc2cnc(N)nc2N)cc1-c1ccc(OC(F)(F)F)cc1 , thanks. 63.6

If you can, please state the reported inhibition at 24 h, 100 µM value of CCC(C)c1cc(OC)c(I)cc1Oc1cnc(N)nc1N (configuration not stated) . 62.7

Entry CC(C)c1cc(OCC2CCCCC2)c(I)cc1Oc1cnc(N)nc1N has what inhibition at 24 h, 100 µM? 65

// lookup inhibition at 24 h, 100 µM for CC(C)c1cc(OCC2CCC2)c(I)cc1Oc1cnc(N)nc1N 13.2

Look at this compound and give its reported inhibition at 24 h, 100 µM. COc1cc(C(C)C)c(Oc2cnc(N)nc2N)cc1-c1ccc(O)cc1 53.1
